Tested on: NCI/ADR-RES
runDescription: NCI tumour cell line growth inhibition, 48 h
Activity calls are given as the source filed them. Cut-off read from the data, not from the text of the source: active = GI50 up to about 1.1 µM and inactive = higher.
Your answer must be one of the following: 1 (yes) (active), 0 (no) (inactive)

// known answers, use as guide
[[record]]
compound = "Cc1ccc2c(c1)C(C1Cc3c(C)cccc3C1=O)OC2=O (stereo not given)"
testedsystem = "NCI/ADR-RES"
labelvalue = "0 (no)"

[[record]]
compound = "OCCCCn1cc(Cn2ncc3c(NCc4ccccc4)ncnc32)nn1"
testedsystem = "NCI/ADR-RES"
labelvalue = "0 (no)"

[[record]]
compound = "O=c1[nH]c2ccccc2c(=O)c2cc3ccccc3cc12"
testedsystem = "NCI/ADR-RES"
labelvalue = "0 (no)"

[[record]]
compound = "C=C=C(CC(CC(=C)Br)(C(=O)OC)C(=O)OC)S(=O)(=O)c1ccccc1"
testedsystem = "NCI/ADR-RES"
labelvalue = "0 (no)"

[[record]]
compound = "Nc1nc(N)c(N=Nc2ccc([As](=O)(O)O)c(O)c2)c(N)n1"
testedsystem = "NCI/ADR-RES"
labelvalue = "0 (no)"

[[record]]
compound = "CC(C#N)NCc1ccc(C(C)NC(C)C#N)cc1 (stereo not given)"
testedsystem = "NCI/ADR-RES"
labelvalue = "0 (no)"

[[record]]
compound = "COc1cc2c(cc1O)CCN(C)[C@H]2Cc1ccc(Oc2c(O)c(OC)cc3c2C[C@H]2c4c(c(OC)c(OC)c(OC)c4-3)CCN2C)cc1 [THALIFABERIDINE]"
testedsystem = "NCI/ADR-RES"
labelvalue = "0 (no)"

[[record]]
compound = "Fc1ccc(C(OCCN2CCC3CCC(C2)N3C/C=C/c2cccs2)c2ccc(F)cc2)cc1 (stereo not given)"
testedsystem = "NCI/ADR-RES"
labelvalue = "0 (no)"

[[record]]
compound = "O=C(O)c1nnsc1-c1ccc(-c2snnc2C(=O)O)cc1"
testedsystem = "NCI/ADR-RES"
labelvalue = "0 (no)"


What classification did `C/C(=N\O)c1ccc(Nc2c3ccccc3nc3occc23)cc1` end up with in this test?
1 (yes)

---

GI50 for assorted compounds
Tested on: NCI-H522
runDescription: NCI tumour cell line growth inhibition, 48 h
Active and inactive are the calls of the source. No stated cut-off is given here; in the data, active = GI50 up to about 1.1 µM and inactive = higher.

Below: 4 compounds and their reported GI50.
[[record]]
compound = "COC(=O)c1cnc(Cl)c([N+](=O)[O-])c1"
endpointresult = "1.64 µM (inactive)"

[[record]]
compound = "CCCCCCCC(=O)OC(CBr)COC(=O)C(C)(C)C (configuration not stated)"
endpointresult = "> 100 µM (inactive)"

[[record]]
compound = "O=C1N2CCC[C@H]2CS1(=O)=O"
endpointresult = "5.66 µM (inactive)"

[[record]]
compound = "CCCCS(=O)(=O)CCC(N)C(=O)O (configuration not stated)"
endpointresult = "> 100 µM (inactive)"


Kindly consider the entry below.
Recorded GI50 (compound `CC(=O)O[C@H]1C(=O)[C@@]2(C)[C@H]([C@H](OC(=O)c3ccncc3)[C@]3(O)C[C@H](OC(=O)[C@H](O)[C@@H](NC(=O)c4ccccc4)c4ccccc4)C(C)=C1C3(C)C)[C@]1(OC(C)=O)CO[C@@H]1C[C@@H]2O` ): 1.77 µM (inactive)

---

Test system: SK-OV-3
runDescription: NCI tumour cell line growth inhibition, 48 h
Active and inactive are the calls of the source. Cut-off read from the data, not from the text of the source: active = GI50 up to about 1.1 µM and inactive = higher.
GI50 for assorted compounds

Below: 6 compounds and their reported GI50.
[[record]]
compound = "C[C@@H](C1CC[C@H]2[C@@H]3[C@@H]4O[C@@H]4[C@@]4(O)CC=CC(=O)[C@]4(C)[C@H]3C[C@H](O)[C@]12C)[C@H]1C[C@]2(C)O[C@]2(C)C(=O)O1 (some centres undefined)"
testedsystem = "SK-OV-3"
experimentalreadout = "GI50"
endpointresult = "> 100 µM (inactive)"

[[record]]
compound = "CN1CCN(C(=O)CCNC(=O)Cc2ccc(C(=O)c3ccccc3)cc2)CC1"
testedsystem = "SK-OV-3"
experimentalreadout = "GI50"
endpointresult = "> 100 µM (inactive)"

[[record]]
compound = "Cc1ccc2c(c1)C(C1Cc3c(C)cccc3C1=O)OC2=O (centres undefined)"
testedsystem = "SK-OV-3"
experimentalreadout = "GI50"
endpointresult = "> 100 µM (inactive)"

[[record]]
compound = "C[C@@H]1C[C@H]2[C@@H]3CCC4=CC(=O)C=C[C@]4(C)[C@@]3(F)[C@@H](O)C[C@]2(C)[C@@]1(O)C(=O)CO [DEXAMETHASONE]"
testedsystem = "SK-OV-3"
experimentalreadout = "GI50"
endpointresult = "> 100 µM (inactive)"

[[record]]
compound = "C#CCCCCC#Cc1ccccc1C(=O)OC"
testedsystem = "SK-OV-3"
experimentalreadout = "GI50"
endpointresult = "> 100 µM (inactive)"

[[record]]
compound = "N=C(N)Nc1ccc(CC(N)C(=O)O)cc1 (centres undefined)"
testedsystem = "SK-OV-3"
experimentalreadout = "GI50"
endpointresult = "> 12.5 µM (inactive)"


Recorded GI50 (compound COC12C=CC(C=C1C#N)CC2.COC12C=CC(CC1)CC2=O (centres undefined) ): > 100 µM (inactive)

Recorded GI50 (compound `COc1cc(OC)nc(Nc2c(C#N)c3nc4ccccc4n3c3ccccc23)n1` ): 51.6 µM (inactive)

Recorded GI50 (compound CC1OC(n2cc(F)c(=O)[nH]c2=O)C=CC1=O (centres undefined) ): 29 µM (inactive)
